Assign inhibition at 1 µM to each entry below.
- experimental target: UniProt P15056
- Sequence (P15056 whole entry): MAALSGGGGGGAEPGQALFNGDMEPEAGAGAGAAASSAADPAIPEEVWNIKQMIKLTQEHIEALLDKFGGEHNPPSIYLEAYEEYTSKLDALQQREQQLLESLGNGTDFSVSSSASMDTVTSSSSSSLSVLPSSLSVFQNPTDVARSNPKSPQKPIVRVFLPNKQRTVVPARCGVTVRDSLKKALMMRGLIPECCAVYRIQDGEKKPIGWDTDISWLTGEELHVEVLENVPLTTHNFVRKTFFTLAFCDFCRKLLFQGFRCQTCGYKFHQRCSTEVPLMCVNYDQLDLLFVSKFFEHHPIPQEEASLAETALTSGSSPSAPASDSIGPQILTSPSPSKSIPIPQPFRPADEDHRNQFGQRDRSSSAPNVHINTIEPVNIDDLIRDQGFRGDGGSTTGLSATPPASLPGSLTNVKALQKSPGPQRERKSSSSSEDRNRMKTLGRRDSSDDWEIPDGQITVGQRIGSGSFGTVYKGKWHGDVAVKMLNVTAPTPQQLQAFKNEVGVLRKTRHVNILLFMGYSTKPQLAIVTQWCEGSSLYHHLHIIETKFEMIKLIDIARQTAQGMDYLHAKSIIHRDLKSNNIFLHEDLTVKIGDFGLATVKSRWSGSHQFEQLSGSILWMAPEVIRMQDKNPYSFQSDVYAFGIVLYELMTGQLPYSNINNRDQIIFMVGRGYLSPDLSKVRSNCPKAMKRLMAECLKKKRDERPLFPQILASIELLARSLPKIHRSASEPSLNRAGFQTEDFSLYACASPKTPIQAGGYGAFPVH
- assay info: Z′-LYTE kinase inhibition assay (Invitrogen), BRAF
- Type: biochemical
- protocol conditions: 1 μM compound, Z′-LYTE method; read-out: % inhibition at 1 μM against BRAF
- Description: Inhibitory activities Inhibitory activities of compounds against BRAF, and BRAF V600E were measured by Invitrogen using Z′-LYTE® Method as briefly described in the following. 4× Test compounds are dissolved in 1% DMSO. […] Fluorescence was read by plate reader. IC50 was calculated by plotting the concentration of compound vs the percentage of inhibition in treated wells using GraphPad Prism 5.

Would you mind telling me what inhibition at 1 µM value was observed for O=C(Nc1cccc(C(=O)c2ccc3ncc(-c4cccnc4)nc3c2)c1)Nc1ccc(Cl)c(C(F)(F)F)c1 [Compound C022] ?
70 to 89%

Another compound to look at: O=C(Nc1cccc(C(=O)c2ccc3nccnc3c2)c1)Nc1cc(C(F)(F)F)ccc1Cl [Compound C002]
70 to 89%

Another compound to look at: O=C(Nc1ccc(F)c(F)c1)Nc1ccc(F)c(C(=O)c2ccc3ncc(NCCO)nc3c2)c1 [Compound C087]
> 89%

Another compound to look at: O=C(c1cccc(NC(=O)c2cc(C(F)(F)F)ccc2Cl)c1)c1ccc2nccnc2c1 [Compound C106]
< 70%

Another compound to look at: O=C(Nc1ccc(F)cc1)Nc1ccc(F)c(C(=O)c2ccc3ncc(N4CCNCC4)nc3c2)c1 [Compound C100]
> 89%

Another compound to look at: O=C(Nc1cccc(C(=O)c2ccc3nccnc3c2)c1)c1cccc(C(F)(F)F)c1 [Compound C110]
70 to 89%

Another compound to look at: O=C(Nc1cccc(C(=O)c2ccc3nccnc3c2)c1)c1ccc(C(F)(F)F)c(Cl)c1 [Compound C107]
< 70%

Another compound to look at: O=C(Nc1cccc(C(=O)c2ccc3ncc(N4CCCC4)nc3c2)c1)c1cccc(F)c1 [Compound C121]
< 70%

Another compound to look at: O=C(Nc1ccc(F)c(F)c1)Nc1ccc(F)c(C(=O)c2ccc3ncc(N4CCOCC4)nc3c2)c1 [Compound C046]
70 to 89%

Another compound to look at: O=C(Nc1cc(F)c(F)c(C(=O)c2ccc3ncc(N4CCOCC4)nc3c2)c1)c1cccc(F)c1 [Compound C144]
70 to 89%

Another compound to look at: COc1cnc2ccc(C(=O)c3cc(NC(=O)Nc4ccc(F)c(F)c4)ccc3F)cc2n1 [Compound C082]
< 70%

Another compound to look at: O=C(Nc1ccc(F)cc1)Nc1ccc(F)c(C(=O)c2ccc3ncc(N4CCOCC4)nc3c2)c1 [Compound C053]
> 89%

Another compound to look at: O=C(Nc1cccc(F)c1)Nc1cc(F)c(F)c(C(=O)c2ccc3ncc(N4CCOCC4)nc3c2)c1 [Compound C039]
70 to 89%

Another compound to look at: O=C(Nc1cccc(F)c1)Nc1ccc(F)c(C(=O)c2ccc3ncc(N4CCOCC4)nc3c2)c1 [Compound C035]
70 to 89%

Another compound to look at: O=C(Nc1cc(F)c(F)c(C(=O)c2ccc3ncc(N4CCOCC4)nc3c2)c1)Nc1ccc(Cl)c(C(F)(F)F)c1 [Compound C041]
< 70%

* * *

Assign inhibition at 1 µM to each entry below.
- experimental target: KDR (VEGFR2) (Homo sapiens (Human))
- Sequence (P35968 20-1356): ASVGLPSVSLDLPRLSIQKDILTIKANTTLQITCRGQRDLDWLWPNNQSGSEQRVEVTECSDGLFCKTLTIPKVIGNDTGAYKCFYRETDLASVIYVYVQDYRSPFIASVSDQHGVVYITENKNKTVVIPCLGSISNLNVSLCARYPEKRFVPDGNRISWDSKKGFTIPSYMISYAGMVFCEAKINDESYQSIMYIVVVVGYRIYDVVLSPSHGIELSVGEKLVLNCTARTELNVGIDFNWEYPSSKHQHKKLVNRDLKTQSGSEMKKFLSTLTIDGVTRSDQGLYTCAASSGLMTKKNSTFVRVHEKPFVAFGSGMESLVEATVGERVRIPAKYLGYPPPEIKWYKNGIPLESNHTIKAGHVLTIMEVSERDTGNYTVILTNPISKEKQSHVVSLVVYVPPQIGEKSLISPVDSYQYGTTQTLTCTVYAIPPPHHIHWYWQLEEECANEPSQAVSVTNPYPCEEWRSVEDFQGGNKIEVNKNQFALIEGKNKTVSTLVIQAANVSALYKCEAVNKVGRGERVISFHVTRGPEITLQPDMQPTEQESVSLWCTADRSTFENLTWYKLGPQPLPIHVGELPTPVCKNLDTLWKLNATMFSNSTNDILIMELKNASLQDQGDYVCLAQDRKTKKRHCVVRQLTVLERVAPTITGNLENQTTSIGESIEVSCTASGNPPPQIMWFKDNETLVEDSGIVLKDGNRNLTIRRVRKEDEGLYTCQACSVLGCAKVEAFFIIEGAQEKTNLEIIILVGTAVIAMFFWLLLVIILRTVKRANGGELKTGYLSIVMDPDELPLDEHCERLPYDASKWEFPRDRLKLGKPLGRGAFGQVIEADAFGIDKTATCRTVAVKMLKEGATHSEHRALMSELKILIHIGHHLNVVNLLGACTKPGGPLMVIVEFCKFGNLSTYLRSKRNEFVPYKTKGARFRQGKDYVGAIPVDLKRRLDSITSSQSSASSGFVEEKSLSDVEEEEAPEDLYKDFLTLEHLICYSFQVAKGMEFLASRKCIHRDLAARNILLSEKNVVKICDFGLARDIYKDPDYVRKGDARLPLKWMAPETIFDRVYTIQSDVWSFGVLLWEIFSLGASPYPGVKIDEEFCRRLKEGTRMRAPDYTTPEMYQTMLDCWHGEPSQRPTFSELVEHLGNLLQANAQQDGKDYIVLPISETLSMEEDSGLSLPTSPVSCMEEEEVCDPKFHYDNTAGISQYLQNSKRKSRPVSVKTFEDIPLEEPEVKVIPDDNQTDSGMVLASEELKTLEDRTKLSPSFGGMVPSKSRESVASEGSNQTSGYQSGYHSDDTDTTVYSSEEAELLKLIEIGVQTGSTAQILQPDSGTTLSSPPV
- assay info: Z′-LYTE kinase inhibition assay (Invitrogen), KDR
- Format: biochemical
- protocol conditions: 1 μM compound, Z′-LYTE method; read-out: % inhibition at 1 μM against KDR

// lookup inhibition at 1 µM | system=KDR (VEGFR2) (Homo sapiens (Human)) | key= `COc1cnc2ccc(C(=O)c3cc(NC(=O)Nc4ccc(F)c(F)c4)ccc3F)cc2n1`
70 to 89%

Another compound to look at: `O=C(Nc1cc(F)c(F)c(C(=O)c2ccc3ncc(N4CCOCC4)nc3c2)c1F)c1cccc(F)c1`
70 to 89%

Another compound to look at: `O=C(Nc1cccc(C(=O)c2ccc3ncc(N4CCOCC4)nc3c2)c1)c1cccc(F)c1`
70 to 89%

Another compound to look at: `O=C(Nc1ccc(Cl)c(Cl)c1)Nc1ccc(F)c(C(=O)c2ccc3ncc(N4CCOCC4)nc3c2)c1`
> 89%

Another compound to look at: `COc1cnc2ccc(C(=O)c3cc(NC(=O)Nc4cccc(F)c4)ccc3F)cc2n1`
70 to 89%

Another compound to look at: `O=C(Nc1cccc(Cl)c1)Nc1cc(F)cc(C(=O)c2ccc3nccnc3c2)c1`
< 70%

Another compound to look at: `O=C(Nc1ccc(Cl)c(C(F)(F)F)c1)Nc1ccc(F)c(C(=O)c2ccc3nccnc3c2)c1F`
< 70%

Another compound to look at: `O=C(Nc1ccc(F)c(C(=O)c2ccc3nccnc3c2)c1)Nc1ccc(Cl)c(C(F)(F)F)c1`
> 89%
